Test system: HCC-2998 colon
Assay: NCI-60 one-dose screen, 48 h
Conditions: 10 µM unless noted
Compounds without any hit were thinned out: in the full panel of roughly 83,000, 20% have a hit. Calls of active or inactive are those of the source. The calls were made as follows: active = growth percent below 10; inactive = the rest.
Outcomes: active, inactive

>>> discrete_label("O=S(=O)(NCCNc1nccc(-c2c(-c3ccc(F)c(O)c3)nc3occn23)n1)c1ccccc1")
"inactive"
>>> discrete_label("COc1cc2ncnc(Nc3ccc(C(=O)/C=C/c4ccc(C(F)(F)F)cc4F)cc3)c2cc1OC")
"inactive"
>>> discrete_label("CCNC(=O)c1[nH]cc(-c2ccc(OC)cc2)c1-c1cc(OC)c(OC)c(OC)c1")
"inactive"
>>> discrete_label("CC(=O)Nc1ccc(S(=O)(=O)NC2CCCCC2)cc1")
"inactive"
>>> discrete_label("Fc1ccccc1CSc1ncnc2nc[nH]c12")
"inactive"
>>> discrete_label("FC(F)(F)Oc1cccc(-c2cc(NCCCCCCNc3cc(-c4cccc(OC(F)(F)F)c4)nc4ccc(N5CCCC5)cc34)c3cc(N4CCCC4)ccc3n2)c1")
"active"
>>> discrete_label("C[C@@H]1CN(Cc2ccc(/C=C/c3n[nH]c4ccc5nc(-c6cn[nH]c6C(F)(F)F)c6c(c5c34)CCCC6)cc2)C[C@H](C)O1")
"inactive"
>>> discrete_label("COc1ccc(NC(=O)c2sc3nc(C)c(C(=O)CCc4cccc(OC)c4)cc3c2N)cc1")
"inactive"
>>> discrete_label("COc1ccc(/C(=C\\c2ccccc2)C(=O)O)cc1OC")
"inactive"

Values compiled from PubChem BioAssay (NCI).
